Attribution: ChEMBL document CHEMBL4052694

- System Under Test: Somatostatin receptor type 5 (Homo sapiens)
- Sequence (P35346 whole entry): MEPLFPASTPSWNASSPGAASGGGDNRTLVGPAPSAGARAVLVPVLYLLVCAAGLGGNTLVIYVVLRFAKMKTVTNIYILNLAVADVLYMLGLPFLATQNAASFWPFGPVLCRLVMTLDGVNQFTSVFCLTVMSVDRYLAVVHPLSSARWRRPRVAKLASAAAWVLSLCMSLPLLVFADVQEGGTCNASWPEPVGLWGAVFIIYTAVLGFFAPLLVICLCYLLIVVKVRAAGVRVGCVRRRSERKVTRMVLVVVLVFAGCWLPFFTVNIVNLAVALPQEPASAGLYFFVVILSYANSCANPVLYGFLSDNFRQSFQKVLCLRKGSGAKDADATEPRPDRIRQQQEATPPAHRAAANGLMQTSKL
- Assay Notes: Antagonist activity at human SSTR5 expressed in CHO cells assessed as inhibition of SST14-induced forskolin-stimulated intracellular cAMP level incubated for 15 mins followed by forskolin stimulation for 30 mins by HTRF assay
Readout Label: IC50 (nM)

Guide cases for IC50, answers given:
CCOc1cc(CN2CC3(CC(c4ccc(C(=O)O)cc4C)=NO3)C2)cc(OCC)c1-c1ccc(F)cc1 :: 140
CCOc1cc(CN2CC3(CC(c4ccc(C(=O)O)cc4)=NO3)C2)cc(OCC)c1-c1ccc(F)cc1 :: 9
CCOc1cc(CN2CC3(CC(c4ccccc4)=NO3)C2)cc(OCC)c1-c1ccc(F)cc1 :: 2800

a: CCOc1cc(CN2CC3(CC(c4ccc(C(N)=O)cc4)=NO3)C2)cc(OCC)c1-c1ccc(F)cc1
b: CCOc1cc(CN2CC3(CC(c4ccc(CC(=O)O)cc4)=NO3)C2)cc(OCC)c1-c1ccc(F)cc1
In: Form: Entry with minimum IC50 (choose one): a / b To answer, give the label that identifies your chosen option.
Out: a
(a: 150 nM, b: 220 nM)

---

- Assay Notes: Oral bioavailability in ICR mouse at 1 mg/kg administered as cassette dose by LC/MS/MS analysis
- Format: ADME, organism-based
- Run Parameters: in vivo
Readout Label: bioavailability (%)
Form entry: value (%) — number only.

In: Entry CCOc1cc(CN2CC3(CC(N4CCC(C(=O)O)CC4)=NO3)C2)cc(OCC)c1-c1ccc(F)cc1 has what bioavailability?
Out: 58

---

- Assay Notes: Intrinsic clearance in mouse liver microsomes at 1 uM after 15 to 30 mins in presence of NADPH by LC/MS/MS analysis
- Type: ADME, microsome
- Run Parameters: read-out: CLH
Readout Label: microsomal CLint at 1 µM (µL/min/mg)
Numbers only here, please. The scale is µL/min/mg.

In: Which value of microsomal CLint at 1 µM has been reported for CCOc1cc(CN2CC3(CC(N4CCC(C(=O)O)CC4)=NO3)C2)cc(OCC)c1-c1ccc(F)cc1 in the records?
Out: 19

---

- Assay Notes: AUC (0 to 8 hrs) in ICR mouse at 1 mg/kg, po administered as cassette dose by LC/MS/MS analysis
- Type: ADME, organism-based
- Set-up: dose 1 mg/kg, time < 8 hr, route oral
- Run Parameters: in vivo
Readout Label: AUC(0-t) at 8 h (ng·h/mL)
The figure you give is taken to be in ng·h/mL; do not add the unit.

In: I have this compound here, CCOc1cc(CN2CC3(CC(N4CCC(C(=O)O)CC4)=NO3)C2)cc(OCC)c1-c1ccc(F)cc1 , and I need its recorded AUC(0-t) at 8 h.
Out: 332

---

- Assay Notes: Solubility of the compound in aqueous buffer solution at pH 6.8 after 18 hrs by HPLC analysis
- Assay type: physicochemical
Readout Label: solubility at 18 h (mg/mL)

P: CCOc1cc(CN2CC3(CC(c4ccc(C(=O)O)cc4)=NO3)C2)cc(OCC)c1-c1ccc(F)cc1
Q: CCOc1cc(CN2CC3(CC(N4CCC(C(=O)O)CC4)=NO3)C2)cc(OCC)c1-c1ccc(F)cc1
In: Identify the item whose solubility at 18 h is the smaller number: P or Q Return value: the label identifying the chosen record.
Out: P

---

- Assay Notes: 1-octanol/aqueous buffer solution partition coefficient, log D of the compound at pH 7.4 by UV-vis/HPLC method
- Format: physicochemical
Readout Label: logD

CCOc1cc(C(C)N2CC3(CC(c4ccc(C(=O)O)cc4)=NO3)C2)cc(OCC)c1-c1ccc(F)cc1 (stereo not given) :: 3.6
CCOc1cc(CN2CC3(CC([C@H]4CC[C@H](C(=O)O)CC4)=NO3)C2)cc(OCC)c1-c1ccc(F)cc1 :: 3.2
CCOc1cc(CN2CC3(CC(N4CCC(C(=O)O)C4)=NO3)C2)cc(OCC)c1-c1ccc(F)cc1 (stereo not given) :: 2.9
CCOc1cc(CN2CC3(CC(N4CC(C(=O)O)C4)=NO3)C2)cc(OCC)c1-c1ccc(F)cc1 :: 2.9
CCOc1cc(C(=O)N2CC3(CC(c4ccc(C(=O)O)cc4)=NO3)C2)cc(OCC)c1-c1ccc(F)cc1 :: 2.8
CCOc1cc(CN2CC3(CC([C@H]4CC[C@@H](C(=O)O)CC4)=NO3)C2)cc(OCC)c1-c1ccc(F)cc1 :: 3.3
CCOc1cc(CN2CC3(CC(c4ccc(C(=O)O)cc4)=NO3)C2)cc(OCC)c1-c1ccc(F)cc1 :: 3.3
CCOc1cc(CN2CC3(CC(c4ccccc4C(=O)O)=NO3)C2)cc(OCC)c1-c1ccc(F)cc1 :: 3.1
CCOc1cc(CN2CC3(CC(c4ccc(C(=O)O)cc4Cl)=NO3)C2)cc(OCC)c1-c1ccc(F)cc1 :: 3.5
CCOc1cc(CN2CC3(CC(c4ccc(C(=O)O)cc4C)=NO3)C2)cc(OCC)c1-c1ccc(F)cc1 :: 3.5

---

- Assay Notes: Volume of distribution at steady state in ICR mouse at 0.1 mg/kg, iv administered as cassette dose by LC/MS/MS analysis
- Format: ADME, organism-based
- Run Parameters: in vivo, read-out: Vdss
Readout Label: Vd (L/kg)
Field: numeric (L/kg). Do not append units.

In: I would be grateful if you could share the reported Vd for CCOc1cc(CN2CC3(CC(N4CCC(C(=O)O)CC4)=NO3)C2)cc(OCC)c1-c1ccc(F)cc1 .
Out: 3.05

---

- System Under Test: Somatostatin receptor type 5 (Mus musculus)
- Sequence (O08858 whole entry): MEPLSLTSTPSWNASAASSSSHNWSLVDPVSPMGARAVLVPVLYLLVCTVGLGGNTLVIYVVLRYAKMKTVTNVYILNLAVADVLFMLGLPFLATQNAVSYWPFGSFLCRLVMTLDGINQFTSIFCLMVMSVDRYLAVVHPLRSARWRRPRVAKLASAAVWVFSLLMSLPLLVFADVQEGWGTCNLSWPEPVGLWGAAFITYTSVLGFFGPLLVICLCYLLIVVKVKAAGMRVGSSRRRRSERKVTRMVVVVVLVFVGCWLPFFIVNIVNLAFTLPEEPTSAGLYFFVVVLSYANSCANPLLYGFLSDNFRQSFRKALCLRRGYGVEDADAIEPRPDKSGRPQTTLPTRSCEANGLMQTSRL
- Assay Notes: Antagonist activity at mouse SSTR5 expressed in CHO cells assessed as inhibition of SST14-induced forskolin-stimulated intracellular cAMP level incubated for 15 mins followed by forskolin stimulation for 30 mins by HTRF assay
Readout Label: IC50 (nM)

CCOc1cc(CN2CC3(CC(c4ccc(C(=O)O)cn4)=NO3)C2)cc(OCC)c1-c1ccc(F)cc1 :: 20

P: CCOc1cc(CN2CC3(CC(c4ccc(C(=O)O)cc4Cl)=NO3)C2)cc(OCC)c1-c1ccc(F)cc1
Q: CCOc1cc(CN2CC3(CC(c4ccc(C(=O)O)cc4C)=NO3)C2)cc(OCC)c1-c1ccc(F)cc1
R: CCOc1cc(CN2CC3(CC(c4cccc(C(=O)O)c4)=NO3)C2)cc(OCC)c1-c1ccc(F)cc1
In: Task field, ranking: reported IC50, descending order. Returns: the labels arranged in the requested order.
Out: R, P, Q
(R: 260 nM, P: 31 nM, Q: 21 nM)

---

- System Under Test: Somatostatin receptor type 5 (Mus musculus, UniProt O08858)
- Assay Notes: Antagonist activity at mouse SSTR5 expressed in CHO cells assessed as inhibition of SST14-induced forskolin-stimulated intracellular cAMP level incubated for 15 mins followed by forskolin stimulation for 30 mins by HTRF assay
Readout Label: IC50 (nM)

Here are 4 compounds together with their reported answers.
CCOc1cc(C(C)N2CC3(CC(c4ccc(C(=O)O)cc4)=NO3)C2)cc(OCC)c1-c1ccc(F)cc1 (centres undefined) :: 2000
CCOc1cc(CN2CC3(CC([C@H]4CC[C@@H](C(=O)O)CC4)=NO3)C2)cc(OCC)c1-c1ccc(F)cc1 :: 210
CCOc1cc(CN2CC3(CC(N4CC(C(=O)O)C4)=NO3)C2)cc(OCC)c1-c1ccc(F)cc1 :: 120
CCOc1cc(CN2CC3(CC(c4ccc(C(=O)O)cc4)=NO3)C2)cc(OCC)c1-c1ccc(F)cc1 :: 33

A: CCOc1cc(CN2CC3(CC(c4ccc(CC(=O)O)cc4)=NO3)C2)cc(OCC)c1-c1ccc(F)cc1
B: CCOc1cc(CN2CC3(CC(CCC(=O)O)=NO3)C2)cc(OCC)c1-c1ccc(F)cc1
C: CCOc1cc(CN2CC3(CC(N4CCC(C(=O)O)C4)=NO3)C2)cc(OCC)c1-c1ccc(F)cc1 (centres undefined)
D: CCOc1cc(CN2CC3(CC(c4ccccc4)=NO3)C2)cc(OCC)c1-c1ccc(F)cc1
In: Please put the entries in order of rising IC50. Rank the items, then write their labels in that order.
Out: C, A, B, D
(C: 48 nM, A: 74 nM, B: 220 nM, D: 980 nM)
